The compounds listed here are annotated with their GI50.
Tested on: MM1.S
Experiment: Antiproliferative activity against human MM1.S cells assessed as inhibition of cell proliferation measured up to 72 hrs by CellTiter96 Aqueous one reagent based assay
Type: functional
Conditions: time hrs <=72, read-out: pGI50 (converted)

QUERY: Given COc1cc2c(NCC3CCC(C(=O)NO)CC3)cc(-c3ccc(C)o3)nc2cc1OCCCN1CCCC1 (stereo not drawn) , state its recorded GI50.
RESULT: > 10 µM

* * *

The molecules listed here are annotated with their log10(IC50).
Target: Histone-lysine N-methyltransferase EHMT2 (Homo sapiens, UniProt Q96KQ7)
Sequence (Q96KQ7 whole entry): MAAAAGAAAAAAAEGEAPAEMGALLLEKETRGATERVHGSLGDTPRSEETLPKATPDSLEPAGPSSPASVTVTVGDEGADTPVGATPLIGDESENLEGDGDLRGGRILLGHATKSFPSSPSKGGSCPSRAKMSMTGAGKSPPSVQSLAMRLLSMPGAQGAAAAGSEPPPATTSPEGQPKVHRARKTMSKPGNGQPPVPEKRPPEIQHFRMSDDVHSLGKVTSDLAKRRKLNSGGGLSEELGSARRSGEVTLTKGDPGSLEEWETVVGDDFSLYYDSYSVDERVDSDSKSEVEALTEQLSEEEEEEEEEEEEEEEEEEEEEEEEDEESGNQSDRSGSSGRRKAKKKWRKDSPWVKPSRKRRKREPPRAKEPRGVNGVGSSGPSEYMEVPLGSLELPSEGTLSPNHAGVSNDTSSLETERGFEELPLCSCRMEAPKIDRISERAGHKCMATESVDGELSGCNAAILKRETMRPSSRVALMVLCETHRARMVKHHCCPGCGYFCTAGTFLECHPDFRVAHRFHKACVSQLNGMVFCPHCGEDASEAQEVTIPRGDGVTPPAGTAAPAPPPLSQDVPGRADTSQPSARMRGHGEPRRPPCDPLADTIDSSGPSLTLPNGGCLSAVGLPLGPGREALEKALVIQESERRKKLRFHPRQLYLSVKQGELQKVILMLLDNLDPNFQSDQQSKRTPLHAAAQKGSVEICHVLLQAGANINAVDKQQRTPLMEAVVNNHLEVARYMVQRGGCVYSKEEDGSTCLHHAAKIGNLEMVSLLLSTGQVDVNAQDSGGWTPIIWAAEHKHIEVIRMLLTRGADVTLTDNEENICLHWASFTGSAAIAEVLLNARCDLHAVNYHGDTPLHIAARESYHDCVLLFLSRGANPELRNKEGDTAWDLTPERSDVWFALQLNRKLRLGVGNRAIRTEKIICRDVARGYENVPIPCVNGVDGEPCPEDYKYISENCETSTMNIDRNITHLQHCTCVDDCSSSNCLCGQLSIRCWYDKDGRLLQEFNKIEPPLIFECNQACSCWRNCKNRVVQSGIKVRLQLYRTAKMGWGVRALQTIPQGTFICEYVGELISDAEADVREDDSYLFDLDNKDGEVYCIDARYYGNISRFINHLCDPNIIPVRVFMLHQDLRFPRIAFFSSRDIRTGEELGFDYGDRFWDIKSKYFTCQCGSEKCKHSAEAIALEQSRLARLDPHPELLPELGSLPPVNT
Please be aware that the numbers have been log10-transformed from IC50 in nM.

QUERY: Given COc1cc2c(NCC3CCN(c4ccc(C(=O)NO)cc4)CC3)cc(-c3ccc(C)o3)nc2cc1OCCCN1CCCC1 , state its recorded log10(IC50).
RESULT: 2.43

QUERY: Entry COc1cc2c(NCC3CCC(c4ccc(C(=O)NO)cc4)CC3)cc(-c3ccc(C)o3)nc2cc1OCCCN1CCCC1 (stereo not drawn) please
RESULT: 3.49

QUERY: Entry COc1cc2c(NC3CCN(c4ccc(C(=O)NO)cc4)CC3)cc(-c3ccc(C)o3)nc2cc1OCCCN1CCCC1 please
RESULT: 1.40

QUERY: Entry COc1cc2c(NC3CCN(Cc4ccc(C(=O)NO)cc4)CC3)cc(-c3ccc(C)o3)nc2cc1OCCCN1CCCC1 please
RESULT: 1.67

QUERY: Entry COc1cc2c(NCc3ccc(C(=O)NO)cc3)cc(-c3ccc(C)o3)nc2cc1OCCCN1CCCC1 please
RESULT: 2.67

QUERY: Entry COc1cc2c(NCC3CCN(c4ncc(C(=O)NO)cn4)CC3)cc(-c3ccc(C)o3)nc2cc1OCC1CCNCC1 please
RESULT: 3.32
